- System: LOX IMVI
- PROTOCOL DETAILS: NCI tumour cell line growth inhibition, 48 h
Calls of active or inactive are those of the source. Rule as the data show it: active = GI50 up to about 1.1 µM and inactive = higher.
Your reply should match one of these outcome classes. TRUE for active, FALSE for inactive

Below are worked cases with known answers.
>  <MOLECULE>
CCOC(=O)CC(NC(=O)c1ccc(/N=N/N(C)C)cc1)C(=O)OCC (stereo not given)

>  <CATEGORY LABEL>
FALSE

$$$$
>  <MOLECULE>
O=C(O)CCC(NC(=O)c1ccc(Nc2nc3cc(C(F)(F)F)ccc3nc2C(=O)O)cc1)C(=O)O (stereo not given)

>  <CATEGORY LABEL>
FALSE

$$$$
>  <MOLECULE>
CC(C)(C)OC(=O)/C=C/[C@@H](CCC(=O)/C=C/[C@H](/C=C\CCCC(=O)O)NC1(c2ccccc2)c2ccccc2-c2ccccc21)O[Si](C)(C)C(C)(C)C

>  <CATEGORY LABEL>
FALSE

$$$$

Each molecule tested received a call. Report the one for CCc1ccc(/C=C\c2cc(OC)c(OC)c(OC)c2)cc1 .
TRUE

State the result this test recorded for O=c1[nH]cnc2c1ncn2C1SC(CO)C(O)C1O (stereo not given) .
FALSE

Any idea what this test logged for O=C(Nn1c(-c2cccs2)nc2ccc(I)cc2c1=O)c1ccccc1 ?
FALSE
